Can you tell me I (interaction parameter) for the items I'm about to list?
# System: P. falciparum D-6 (drug-sensitive but melfloquine resistant D-6 clone)
# Assay explanation: In vitro drug combination sensitivity (Desjardins hypoxanthine incorporation), D-6 clone
# Type: cell-based
# Test context: drug combined with compound of Example 1, positive = synergistic, negative = antagonism, 0 = additive
Keep it simple and answer with nothing but the number.

# query: I (interaction parameter) | item [H]/N=C(\N/C(=N/[H])Nc1ccc(Cl)cc1)NC(C)C [Proguanil] | system: P. falciparum D-6 (drug-sensitive but melfloquine resistant D-6 clone)
2.56

Provide the documented I (interaction parameter) with P. falciparum D-6 (drug-sensitive but melfloquine resistant D-6 clone) as the system for CC(C)NC(=N)NC(=N)NOCCCOc1cc(Cl)c(Cl)cc1Cl [PS-15]
-0.74

# query: I (interaction parameter) | item Oc1ncnc2[nH]ncc12 [Allopurinol] | system: P. falciparum D-6 (drug-sensitive but melfloquine resistant D-6 clone)
0.43

Could you share what I (interaction parameter) was measured for Cc1nc(C)c(Cl)c(O)c1Cl [Clopidol] , tested on P. falciparum D-6 (drug-sensitive but melfloquine resistant D-6 clone)?
0.73

Value wanted: I (interaction parameter) (P. falciparum D-6 (drug-sensitive but melfloquine resistant D-6 clone)) of entry C[C@H]1[C@H](OC(=O)CCC(=O)O)O[C@@H]2O[C@@]3(C)CC[C@H]4[C@H](C)CC[C@@H]1[C@@]24OO3 [Artesunic acid]
-0.18

Source listed as patent US6291488A.
